All figures here come from patent US20010044445A1.

measure.name: melting point

Some entries whose results are on file:
1) O=C(Nc1ccc(-n2nc(C(F)(F)F)cc2OC(F)F)cc1)c1cccnc1F : 149 to 150 °C
2) N#Cc1cccc(C(=O)Nc2cccc(-n3nc(C(F)(F)F)cc3C(F)(F)F)c2)c1 : 160 to 161 °C
3) O=C(Nc1ccc(-n2nc(C(F)(F)F)cc2C(F)(F)F)cc1)C1CCc2ccccc2C1 (stereo not shown) : 199 to 201 °C

Let's switch to this compound now.
Recorded melting point of Cc1nc(C)c(C(=O)Nc2ccc(-n3nc(C(F)(F)F)cc3C(F)(F)F)cc2)s1 , please.
158 to 159 °C
